What protein stability index was measured for each of the following?
B1: SMOC2 (parent)
chain: QKPLCASDGRTFLSRCEFQRAKCK

Variants of: B1
Assay: protein stability index of a GFP-peptide fusion (GPS, HEK-293T) (PSI 1-6); higher = more stable;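 also: lentivirally expressed fusions sorted by FACS into six bins by GFP to DsRed ratio, PSI derived from sequencing read proportions per bin multiplied by bin number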
Conditions: c terminus: a fixed tail appended
I only need the number, thanks.

Exercise: What measured protein stability index goes with `QKPLCASDGRTFLSRCEFQRAMCK` ?
Solution: 2.36

Exercise: What measured protein stability index goes with `QKPLCASDGRTFLSDCEFQRAKCK` ?
Solution: 4.47

Exercise: What measured protein stability index goes with `QKPLCASDGRTFLSRCESQRAKCK` ?
Solution: 3.82

Exercise: What measured protein stability index goes with `QKPLCASDGRTFASRCEFQRAKCK` ?
Solution: 1.9

Exercise: What measured protein stability index goes with `QKPLCASDGRTFLSRCEFQRAKFK` ?
Solution: 1.88

Exercise: What measured protein stability index goes with `QKPLCASDGRTFLSRMEFQRAKCK` ?
Solution: 3.43

Exercise: What measured protein stability index goes with `QKPYCASDGRTFLSRCEFQRAKCK` ?
Solution: 1.99

Exercise: What measured protein stability index goes with `QKPLCASDGRTFLSRCAFQRAKCK` ?
Solution: 3.31

Exercise: What measured protein stability index goes with `QKPLCASDGRTFLSICEFQRAKCK` ?
Solution: 3.77

Exercise: What measured protein stability index goes with `QKPLCASDGRLFLSRCEFQRAKCK` ?
Solution: 2.68

Exercise: What measured protein stability index goes with `CKPLCASDGRTFLSRCEFQRAKCK` ?
Solution: 1.87

Exercise: What measured protein stability index goes with `QKPLCASDGRTFLGRCEFQRAKCK` ?
Solution: 3.44

Exercise: What measured protein stability index goes with `QKELCASDGRTFLSRCEFQRAKCK` ?
Solution: 4.05

Exercise: What measured protein stability index goes with `QKPLCAVDGRTFLSRCEFQRAKCK` ?
Solution: 2.59

Exercise: What measured protein stability index goes with `QKPLCASDGRTFLSRCEFQRAKPK` ?
Solution: 4.01

Exercise: What measured protein stability index goes with `QKPLCASDGRTFLSRPEFQRAKCK` ?
Solution: 3.57

Exercise: What measured protein stability index goes with `QKPLCASMGRTFLSRCEFQRAKCK` ?
Solution: 2.63

Exercise: What measured protein stability index goes with `QKPLCASDGRTFDSRCEFQRAKCK` ?
Solution: 4.78

Exercise: What measured protein stability index goes with `QKPLCASDGTTFLSRCEFQRAKCK` ?
Solution: 3.54

Exercise: What measured protein stability index goes with `QKPLCASDGRTFLSRCEFQRAKCD` ?
Solution: 3.35

Exercise: What measured protein stability index goes with `QKPLCASDGRTFLSRAEFQRAKCK` ?
Solution: 3.39

Exercise: What measured protein stability index goes with `QKPLCASDGRTFYSRCEFQRAKCK` ?
Solution: 2.52

Exercise: What measured protein stability index goes with `QKPLCASDGRTFLSRTEFQRAKCK` ?
Solution: 3.96

Exercise: What measured protein stability index goes with `QKPLCASDGRTFLSRCEFQRAKCA` ?
Solution: 3

Exercise: What measured protein stability index goes with `QKPLCASDGRTDLSRCEFQRAKCK` ?
Solution: 4.57

Exercise: What measured protein stability index goes with `QKPLCASDGRTCLSRCEFQRAKCK` ?
Solution: 2.97

Exercise: What measured protein stability index goes with `QGPLCASDGRTFLSRCEFQRAKCK` ?
Solution: 3.16

Exercise: What measured protein stability index goes with `QKPLCASDGNTFLSRCEFQRAKCK` ?
Solution: 1.99

Exercise: What measured protein stability index goes with `QKPICASDGRTFLSRCEFQRAKCK` ?
Solution: 2.31

Exercise: What measured protein stability index goes with `QKPLCASDGRTFLSRCEFQRADCK` ?
Solution: 2.9

Exercise: What measured protein stability index goes with `QFPLCASDGRTFLSRCEFQRAKCK` ?
Solution: 2.75

Exercise: What measured protein stability index goes with `QKPLCASDPRTFLSRCEFQRAKCK` ?
Solution: 2.45

Exercise: What measured protein stability index goes with `QDPLCASDGRTFLSRCEFQRAKCK` ?
Solution: 3.62

Exercise: What measured protein stability index goes with `QKPLCASDGRTFCSRCEFQRAKCK` ?
Solution: 3.51

Exercise: What measured protein stability index goes with `QKPLCASDGQTFLSRCEFQRAKCK` ?
Solution: 3.33

Exercise: What measured protein stability index goes with `QKPLCASDGRTFLSRCEFQRNKCK` ?
Solution: 2.68

Exercise: What measured protein stability index goes with `QKPLWASDGRTFLSRCEFQRAKCK` ?
Solution: 2.31

Exercise: What measured protein stability index goes with `QKPLCTSDGRTFLSRCEFQRAKCK` ?
Solution: 2.42

Exercise: What measured protein stability index goes with `QKPLCASDGRTFNSRCEFQRAKCK` ?
Solution: 3.78

Exercise: What measured protein stability index goes with `QKPLCASDGRTFLSRCEFQRLKCK` ?
Solution: 2.48

Exercise: What measured protein stability index goes with `QKPLCAADGRTFLSRCEFQRAKCK` ?
Solution: 2.33

Exercise: What measured protein stability index goes with `QKPLCASDGRTFLSRDEFQRAKCK` ?
Solution: 4.62

Exercise: What measured protein stability index goes with `QKPLCISDGRTFLSRCEFQRAKCK` ?
Solution: 2.74

Exercise: What measured protein stability index goes with `QKPLCASDGRTFLSRCPFQRAKCK` ?
Solution: 3.07

Exercise: What measured protein stability index goes with `QKPLCASDGRTFLDRCEFQRAKCK` ?
Solution: 3.21

Exercise: What measured protein stability index goes with `QKPLCASDGRIFLSRCEFQRAKCK` ?
Solution: 2.71

Exercise: What measured protein stability index goes with `QKPLCASDGRTFLSRCEFQYAKCK` ?
Solution: 2.62

Exercise: What measured protein stability index goes with `QKPLCASDGRTFLSRCEFQCAKCK` ?
Solution: 3.45

Exercise: What measured protein stability index goes with `QKPLCASDGRTFLSRCEFQLAKCK` ?
Solution: 3.01

Exercise: What measured protein stability index goes with `QKPLCASDGRKFLSRCEFQRAKCK` ?
Solution: 4.04

Exercise: What measured protein stability index goes with `QKPLCASDGRTRLSRCEFQRAKCK` ?
Solution: 3.73

Exercise: What measured protein stability index goes with `QKPLCASDGRTFLSRCMFQRAKCK` ?
Solution: 2.6

Exercise: What measured protein stability index goes with `QKPLCASDGRTFLSRCEFLRAKCK` ?
Solution: 2

Exercise: What measured protein stability index goes with `QKPLCASDGRTFLSRCCFQRAKCK` ?
Solution: 2.74

Exercise: What measured protein stability index goes with `QKPLCASDGRTFLSMCEFQRAKCK` ?
Solution: 2.92

Exercise: What measured protein stability index goes with `QKPLCASDGRTFLSRCEVQRAKCK` ?
Solution: 4.01

Exercise: What measured protein stability index goes with `QKPLCHSDGRTFLSRCEFQRAKCK` ?
Solution: 3.61

Exercise: What measured protein stability index goes with `QKPLCASDGRTFLSRCEFQTAKCK` ?
Solution: 3.83

Exercise: What measured protein stability index goes with `QKPLCASPGRTFLSRCEFQRAKCK` ?
Solution: 2.75

Exercise: What measured protein stability index goes with `QKPLCASRGRTFLSRCEFQRAKCK` ?
Solution: 3.23

Exercise: What measured protein stability index goes with `QKPLCASDGRHFLSRCEFQRAKCK` ?
Solution: 2.38

Exercise: What measured protein stability index goes with `QKPLCASDGRTFLSRCEFQRAFCK` ?
Solution: 2.65

Exercise: What measured protein stability index goes with `QKPLCASDGRTFLSRCEFQRAKCH` ?
Solution: 2.76

Exercise: What measured protein stability index goes with `VKPLCASDGRTFLSRCEFQRAKCK` ?
Solution: 2.58

Exercise: What measured protein stability index goes with `QKPLCASDGRTFLSFCEFQRAKCK` ?
Solution: 3.18

Exercise: What measured protein stability index goes with `QKPLCASDGRTFLSRCEEQRAKCK` ?
Solution: 4.73

Exercise: What measured protein stability index goes with `QKPQCASDGRTFLSRCEFQRAKCK` ?
Solution: 2.81

Exercise: What measured protein stability index goes with `QKPLCASDGRTFLNRCEFQRAKCK` ?
Solution: 3.47

Exercise: What measured protein stability index goes with `DKPLCASDGRTFLSRCEFQRAKCK` ?
Solution: 2.68

Exercise: What measured protein stability index goes with `QTPLCASDGRTFLSRCEFQRAKCK` ?
Solution: 3.18

Exercise: What measured protein stability index goes with `QKPLCASDGRTFLSRHEFQRAKCK` ?
Solution: 4.04

Exercise: What measured protein stability index goes with `QKPLCASDGRTFLSRCEFQRAWCK` ?
Solution: 2.86

Exercise: What measured protein stability index goes with `GKPLCASDGRTFLSRCEFQRAKCK` ?
Solution: 3.23

Exercise: What measured protein stability index goes with `QKPLCASDERTFLSRCEFQRAKCK` ?
Solution: 3.48

Exercise: What measured protein stability index goes with `QKPLCASDGRTFLSRCEFQDAKCK` ?
Solution: 4.16

Exercise: What measured protein stability index goes with `QKPLCASDNRTFLSRCEFQRAKCK` ?
Solution: 2.82

Exercise: What measured protein stability index goes with `QKPLCASDGRTFLSRCEFQQAKCK` ?
Solution: 3.52

Exercise: What measured protein stability index goes with `QKPLCASDGRTFLSRCENQRAKCK` ?
Solution: 4.19

Exercise: What measured protein stability index goes with `QKPLCASDGRTFLSRCLFQRAKCK` ?
Solution: 2.29

Exercise: What measured protein stability index goes with `QKPLCASDGRTFLSRCIFQRAKCK` ?
Solution: 3.15

Exercise: What measured protein stability index goes with `QCPLCASDGRTFLSRCEFQRAKCK` ?
Solution: 2.03

Exercise: What measured protein stability index goes with `QKPLCASDGRTFLSRCEFQRAKDK` ?
Solution: 3.92

Exercise: What measured protein stability index goes with `QKPLCASDGRTFLSRCEGQRAKCK` ?
Solution: 4.44

Exercise: What measured protein stability index goes with `QKPLCASDGRTFLSQCEFQRAKCK` ?
Solution: 3.45

Exercise: What measured protein stability index goes with `QKPLCASDVRTFLSRCEFQRAKCK` ?
Solution: 2.93

Exercise: What measured protein stability index goes with `QKPLCASDGRTFHSRCEFQRAKCK` ?
Solution: 3.31

Exercise: What measured protein stability index goes with `QKPLFASDGRTFLSRCEFQRAKCK` ?
Solution: 2.01

Exercise: What measured protein stability index goes with `QKPLCASDGRTFLSRCEFQRAKRK` ?
Solution: 4.18

Exercise: What measured protein stability index goes with `QKPLCASDGRTFLSRCEFQRPKCK` ?
Solution: 3.98

Exercise: What measured protein stability index goes with `QKPLCASDGRTFRSRCEFQRAKCK` ?
Solution: 3.15

Exercise: What measured protein stability index goes with `QEPLCASDGRTFLSRCEFQRAKCK` ?
Solution: 3.78
